- target_of_assay: muscarinic acetylcholine receptors
- protocol_details: Inhibition of specific binding of 3H-Oxotremorine-M (OXO BINDING) in vitro, rat cortex
- Set-up: species or system male Wistar rats
- experimental_setup: rat cortex homogenate, 3H-Oxotremorine 1.0 nM, 30 min at 25° C., pH 7.4
Measured Inhibition in vitro OXO BINDING IC50 accompanies every entry in the list below.
Only the number, expressed in ng/mL, is required.

Below, each entry is followed by its recorded Inhibition in vitro OXO BINDING IC50 result.
Clc1nsnc1[C@@H]1CN2CCC[C@@H]1C2 (relative stereo) [Compound 15]    0.61
COc1nsnc1C1(OC)CN2CCC1CC2.O=C(O)C(=O)O (stereo not shown) [Compound 3]    208
FC(F)(F)C(F)(F)C(F)(F)COc1nsnc1[C@@H]1CN2CCC[C@@H]1C2 (relative stereo) [Compound 116]    1.4

Let us move to another entry and its Inhibition in vitro OXO BINDING IC50.
Dear colleague, I am looking for the recorded Inhibition in vitro OXO BINDING IC50 of the following compound: N#Cc1ccc(CSc2nsnc2C2CN3CCC2CC3)cc1.O=C(O)C(=O)O (stereo not shown) [Compound 45]
1.6

====

- target_of_assay: muscarinic acetylcholine receptors
- protocol_details: Inhibition of specific binding of 3H-Oxotremorine-M (OXO BINDING) in vitro, rat cortex
- Design: species or system male Wistar rats
- experimental_setup: rat cortex homogenate, 3H-Oxotremorine 1.0 nM, 30 min at 25° C., pH 7.4
property_label: Inhibition in vitro OXO BINDING IC50 (ng/mL)
Only the number, expressed in ng/mL, is required.

Below, each entry is followed by its recorded Inhibition in vitro OXO BINDING IC50 result.
CCCCCSc1nsnc1[C@H]1CN2CCC[C@@H]1C2 (relative stereo) [Compound 26]    1.4
Clc1nsnc1[C@@H]1CN2CC[C@@H]1C2 (relative stereo) [Compound 21]    0.96

Dear colleague, I am looking for the recorded Inhibition in vitro OXO BINDING IC50 of the following molecule: N#CCSc1nsnc1[C@H]1CN2CCC[C@H]1C2 (relative stereo) [Compound 79]
0.50

Dear colleague, I am looking for the recorded Inhibition in vitro OXO BINDING IC50 of the following molecule: c1ccc(CSc2nsnc2[C@H]2CN3CCC[C@@H]2C3)cc1 (relative stereo) [Compound 88]
6.1

Dear colleague, I am looking for the recorded Inhibition in vitro OXO BINDING IC50 of the following molecule: N#CCCSc1nsnc1[C@H]1CN2CCC[C@@H]1C2 (relative stereo) [Compound 90]
3.3

Dear colleague, I am looking for the recorded Inhibition in vitro OXO BINDING IC50 of the following molecule: N#CCSc1nsnc1[C@H]1CN2CCC[C@@H]1C2 (relative stereo) [Compound 89]
12

Dear colleague, I am looking for the recorded Inhibition in vitro OXO BINDING IC50 of the following molecule: COc1nsnc1C1=CC2CCCN(C1)C2.O=C(O)C(=O)O (stereo not drawn) [Compound 96]
0.3

Dear colleague, I am looking for the recorded Inhibition in vitro OXO BINDING IC50 of the following molecule: Clc1nsnc1[C@H]1CN2CC[C@@H]1C2 (relative stereo) [Compound 22]
3.4

Dear colleague, I am looking for the recorded Inhibition in vitro OXO BINDING IC50 of the following molecule: CCSc1nsnc1[C@H]1CN2CCC[C@@H]1C2 (relative stereo) [Compound 25]
1.9

Dear colleague, I am looking for the recorded Inhibition in vitro OXO BINDING IC50 of the following molecule: ClC1=C(c2cnsn2)CN2CCCC1C2.O=C(O)C(=O)O (stereo not drawn) [Compound 65]
9.6

Dear colleague, I am looking for the recorded Inhibition in vitro OXO BINDING IC50 of the following molecule: CCCCCCSc1nsnc1[C@H]1CN2CCC[C@H]1C2 (relative stereo) [Compound 29]
0.39

Dear colleague, I am looking for the recorded Inhibition in vitro OXO BINDING IC50 of the following molecule: CC(C)CCCSc1nsnc1[C@H]1CN2CCC[C@@H]1C2 (relative stereo) [Compound 87]
10

====

- target_of_assay: muscarinic acetylcholine receptors
- protocol_details: Inhibition of specific binding of 3H-Oxotremorine-M (OXO BINDING) in vitro, rat cortex
- Design: species or system male Wistar rats
- experimental_setup: rat cortex homogenate, 3H-Oxotremorine 1.0 nM, 30 min at 25° C., pH 7.4
hey, just use MET if measured Inhibition in vitro OXO BINDING IC50 is less than 0.7 ng/mL, otherwise NOT MET

N#CCCCCSc1nsnc1[C@H]1CN2CCC[C@H]1C2 (relative stereo)    MET
CC(C)CCOc1nsnc1C1CN2CCC1CC2.O=C(O)C(=O)O (centres unmarked)    NOT MET
c1ccc(CSc2nsnc2[C@H]2CN3CCC[C@H]2C3)cc1 (relative stereo)    MET

Dear colleague, could you confirm whether Inhibition in vitro OXO BINDING IC50 of CCCOc1nsnc1C1=C(Cl)C2CCCN(C1)C2 (centres unmarked) falls below 0.7 ng/mL? Thanks.
NOT MET

Dear colleague, could you confirm whether Inhibition in vitro OXO BINDING IC50 of CC(C)CCSc1nsnc1[C@H]1CN2CCC[C@H]1C2 (relative stereo) falls below 0.7 ng/mL? Thanks.
NOT MET

Dear colleague, could you confirm whether Inhibition in vitro OXO BINDING IC50 of CCCCCSc1nsnc1C1CN2CCC1CC2.O=C(O)/C=C/C(=O)O (centres unmarked) falls below 0.7 ng/mL? Thanks.
MET

Dear colleague, could you confirm whether Inhibition in vitro OXO BINDING IC50 of CCCCSc1nsnc1[C@H]1CN2CCC[C@@H]1C2 (relative stereo) falls below 0.7 ng/mL? Thanks.
MET

Dear colleague, could you confirm whether Inhibition in vitro OXO BINDING IC50 of CCOc1nsnc1C1=C(Cl)CC2CCC1N2.O=C(O)C(=O)O (centres unmarked) falls below 0.7 ng/mL? Thanks.
NOT MET

Dear colleague, could you confirm whether Inhibition in vitro OXO BINDING IC50 of CCCCOc1nsnc1C1=C(Cl)C2CCCN(C1)C2.O=C(O)C(=O)O (centres unmarked) falls below 0.7 ng/mL? Thanks.
NOT MET

Dear colleague, could you confirm whether Inhibition in vitro OXO BINDING IC50 of COc1nsnc1C1=CN2CCC1CC2.O=C(O)C(=O)O falls below 0.7 ng/mL? Thanks.
NOT MET

Dear colleague, could you confirm whether Inhibition in vitro OXO BINDING IC50 of CCCSc1nsnc1[C@@H]1CN2CC[C@H]1C2 (relative stereo) falls below 0.7 ng/mL? Thanks.
NOT MET

Dear colleague, could you confirm whether Inhibition in vitro OXO BINDING IC50 of CCc1ccc(COc2nsnc2C2CN3CCC2CC3)cc1.O=C(O)C(=O)O (centres unmarked) falls below 0.7 ng/mL? Thanks.
NOT MET

Dear colleague, could you confirm whether Inhibition in vitro OXO BINDING IC50 of CCCSc1nsnc1[C@H]1CN2CC[C@H]1C2 (relative stereo) falls below 0.7 ng/mL? Thanks.
MET

Dear colleague, could you confirm whether Inhibition in vitro OXO BINDING IC50 of COc1nsnc1[C@@H]1CN2CC[C@H]1C2 (relative stereo) falls below 0.7 ng/mL? Thanks.
NOT MET

====

Measured Inhibition in vitro OXO BINDING IC50 accompanies every entry in the list below.
- target_of_assay: muscarinic acetylcholine receptors
- protocol_details: Inhibition of specific binding of 3H-Oxotremorine-M (OXO BINDING) in vitro, rat cortex
- Parameters: species or system male Wistar rats
- experimental_setup: rat cortex homogenate, 3H-Oxotremorine 1.0 nM, 30 min at 25° C., pH 7.4
Where a name gives a salt, the structure may show the parent alone.
Only the number, expressed in ng/mL, is required.

Below, each entry is followed by its recorded Inhibition in vitro OXO BINDING IC50 result.
N#Cc1ccc(CSc2nsnc2[C@H]2CN3CCC[C@H]2C3)cc1 (relative stereo)    0.40
c1ccc(OCCSc2nsnc2[C@@H]2CN3CCC[C@H]2C3)cc1 (relative stereo)    13
CCCCCCOc1nsnc1[C@@H]1CN2CCC[C@@H]1C2 (relative stereo)    0.67
O=C(O)/C=C/C(=O)O.c1csc(CCCOc2nsnc2C2CN3CCC2CC3)c1 (centres unmarked)    1.1
CCOc1nsnc1[C@H]1CN2CCC[C@@H]1C2 (relative stereo)    11

Dear colleague, I am looking for the recorded Inhibition in vitro OXO BINDING IC50 of the following compound: c1ccc(CCCSc2nsnc2[C@H]2CN3CC[C@H]2C3)cc1 (relative stereo)
0.56

Dear colleague, I am looking for the recorded Inhibition in vitro OXO BINDING IC50 of the following compound: Cn1nnnc1SCCCCSc1nsnc1C1CN2CCC1CC2 (centres unmarked) [Compound 106, oxalate]
0.9

Dear colleague, I am looking for the recorded Inhibition in vitro OXO BINDING IC50 of the following compound: CCCCCCOc1nsnc1C1=CN2CCC1CC2.O=C(O)C(=O)O
18

Dear colleague, I am looking for the recorded Inhibition in vitro OXO BINDING IC50 of the following compound: CCCOc1nsnc1C1CN2CCC1CC2.O=C(O)/C=C/C(=O)O (centres unmarked)
1.7

Dear colleague, I am looking for the recorded Inhibition in vitro OXO BINDING IC50 of the following compound: CCCCSc1nsnc1[C@@H]1CN2CCC[C@@H]1C2 (single isomer, unassigned) [Compound 112]
0.19

Dear colleague, I am looking for the recorded Inhibition in vitro OXO BINDING IC50 of the following compound: CCCCCCSc1nsnc1C1CN2CCC1CC2.O=C(O)/C=C/C(=O)O (centres unmarked)
4.8

Dear colleague, I am looking for the recorded Inhibition in vitro OXO BINDING IC50 of the following compound: CC(C)CSc1nsnc1C1CN2CCC1CC2.O=C(O)/C=C/C(=O)O (centres unmarked)
0.75

Dear colleague, I am looking for the recorded Inhibition in vitro OXO BINDING IC50 of the following compound: Clc1nsnc1C1CN2CCC1CC2.O=C(O)C(=O)O (centres unmarked)
5.2
